System tested: Adenosine receptor A2a (Homo sapiens, UniProt P29274)
Sequence (P29274 whole entry): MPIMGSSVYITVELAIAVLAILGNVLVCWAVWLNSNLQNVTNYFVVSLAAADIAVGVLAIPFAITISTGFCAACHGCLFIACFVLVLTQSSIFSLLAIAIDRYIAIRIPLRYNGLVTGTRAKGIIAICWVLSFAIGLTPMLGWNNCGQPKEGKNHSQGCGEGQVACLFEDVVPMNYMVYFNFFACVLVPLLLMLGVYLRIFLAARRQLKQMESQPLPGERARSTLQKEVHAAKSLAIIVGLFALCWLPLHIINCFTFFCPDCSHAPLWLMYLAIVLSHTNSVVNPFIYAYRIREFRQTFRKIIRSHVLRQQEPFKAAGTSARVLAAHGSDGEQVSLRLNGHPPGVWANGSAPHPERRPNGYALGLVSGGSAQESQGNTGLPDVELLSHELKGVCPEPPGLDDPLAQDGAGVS
Test protocol: Antagonistic activity at adenosine A2A receptor
pKi: −log10 of the molar value.
Entries annotated with measured pKi
Reported metric: pKi

Nc1nc(-c2ccccc2)c2c(n1)-c1cc(OCCN3CCCCC3)ccc1C2=O ... 7.45
Nc1nc(-c2ccccc2)c2c(n1)-c1cc(NCCN3CCOCC3)ccc1C2=O ... 8.36
Nc1nc(-c2ccccc2)c2c(n1)-c1cc(N3CCN(CC4CC4)CC3)ccc1C2=O ... 7.63
Nc1nc(-c2ccccc2)c2c(n1)-c1cc(NCCc3ccccn3)ccc1C2=O ... 9.05
CCN(CC)CCOc1ccc2c(c1)-c1nc(N)nc(-c3ccc(F)cc3)c1C2=O ... 7.30
CN1CCN(c2ccc3c(c2)-c2nc(N)nc(-c4ccccc4)c2C3=O)CC1 ... 8.57
Nc1nc(-c2ccc(F)cc2)c2c(n1)-c1cc(OCCN3CCOCC3)ccc1C2=O ... 7.74
Nc1nc(-c2ccccc2)c2c(n1)-c1cc(NCCc3ccncc3)ccc1C2=O ... 9.05
CC(C)N1CCN(C(=O)c2ccc3c(c2)-c2nc(N)nc(-c4ccccc4)c2C3=O)CC1 ... 7.68
Nc1nc(-c2ccccc2)c2c(n1)-c1cc(N3CCOCC3)ccc1C2=O ... 8.54

----------
Quick reference for pKi among some molecules
System tested: Adenosine receptor A1 (Homo sapiens)
Sequence (P30542 whole entry): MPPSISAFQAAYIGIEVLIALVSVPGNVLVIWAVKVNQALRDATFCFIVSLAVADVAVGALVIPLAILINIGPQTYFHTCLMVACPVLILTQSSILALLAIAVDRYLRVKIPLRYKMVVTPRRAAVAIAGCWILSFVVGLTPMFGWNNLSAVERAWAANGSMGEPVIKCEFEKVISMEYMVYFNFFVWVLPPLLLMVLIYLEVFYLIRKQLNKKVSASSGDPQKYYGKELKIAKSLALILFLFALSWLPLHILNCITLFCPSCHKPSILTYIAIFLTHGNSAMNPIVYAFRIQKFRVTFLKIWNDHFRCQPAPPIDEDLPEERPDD
Test protocol: Antagonistic activity at adenosine A1 receptor
pKi: −log10 of the molar value.
Reported metric: pKi

Nc1nc(-c2ccccc2)c2c(n1)-c1cc(NCCN3CCOCC3)ccc1C2=O ... 7.49
Nc1nc(-c2ccccc2)c2c(n1)-c1cc(N3CCN(CC4CC4)CC3)ccc1C2=O ... 6.60
CCN1CCC(N(C)c2ccc3c(c2)-c2nc(N)nc(-c4ccccc4)c2C3=O)CC1 ... 7.79
Nc1nc(-c2ccccc2)c2c(n1)-c1cc(NCCc3ccccn3)ccc1C2=O ... 7.81
CN1CCN(c2ccc3c(c2)-c2nc(N)nc(-c4ccccc4)c2C3=O)CC1 ... 7.45
CC(C)N1CCN(C(=O)c2ccc3c(c2)-c2nc(N)nc(-c4ccccc4)c2C3=O)CC1 ... 7.08
Nc1nc(-c2ccccc2)c2c(n1)-c1cc(NCCc3ccncc3)ccc1C2=O ... 7.90
CCN(CC)CCOc1ccc2c(c1)-c1nc(N)nc(-c3ccccc3)c1C2=O ... 6.99
CN1CCC(N(C)C(=O)c2ccc3c(c2)-c2nc(N)nc(-c4ccccc4)c2C3=O)CC1 ... 6.59
CN1CCN(C(=O)c2ccc3c(c2)-c2nc(N)nc(-c4ccc(F)cc4)c2C3=O)CC1 ... 7.00
CN(C)CCN(C)c1ccc2c(c1)-c1nc(N)nc(-c3ccccc3)c1C2=O ... 7.24
CN(C)CCN(C)C(=O)c1ccc2c(c1)-c1nc(N)nc(-c3ccccc3)c1C2=O ... 6.68
Nc1nc(-c2ccccc2)c2c(n1)-c1cc(OCCN3CCCC3)ccc1C2=O ... 6.80
Nc1nc(-c2ccc(F)cc2)c2c(n1)-c1cc(OCCN3CCOCC3)ccc1C2=O ... 6.69
Nc1nc(-c2ccccc2)c2c(n1)-c1cc(C(=O)NCCN3CCOCC3)ccc1C2=O ... 6.67
CC(C)N(CCOc1ccc2c(c1)-c1nc(N)nc(-c3ccccc3)c1C2=O)C(C)C ... 6.73
